# MEASUREMENT_TARGET: OATP4C1 (Homo sapiens, UniProt Q6ZQN7)
# Sequence (Q6ZQN7 whole entry): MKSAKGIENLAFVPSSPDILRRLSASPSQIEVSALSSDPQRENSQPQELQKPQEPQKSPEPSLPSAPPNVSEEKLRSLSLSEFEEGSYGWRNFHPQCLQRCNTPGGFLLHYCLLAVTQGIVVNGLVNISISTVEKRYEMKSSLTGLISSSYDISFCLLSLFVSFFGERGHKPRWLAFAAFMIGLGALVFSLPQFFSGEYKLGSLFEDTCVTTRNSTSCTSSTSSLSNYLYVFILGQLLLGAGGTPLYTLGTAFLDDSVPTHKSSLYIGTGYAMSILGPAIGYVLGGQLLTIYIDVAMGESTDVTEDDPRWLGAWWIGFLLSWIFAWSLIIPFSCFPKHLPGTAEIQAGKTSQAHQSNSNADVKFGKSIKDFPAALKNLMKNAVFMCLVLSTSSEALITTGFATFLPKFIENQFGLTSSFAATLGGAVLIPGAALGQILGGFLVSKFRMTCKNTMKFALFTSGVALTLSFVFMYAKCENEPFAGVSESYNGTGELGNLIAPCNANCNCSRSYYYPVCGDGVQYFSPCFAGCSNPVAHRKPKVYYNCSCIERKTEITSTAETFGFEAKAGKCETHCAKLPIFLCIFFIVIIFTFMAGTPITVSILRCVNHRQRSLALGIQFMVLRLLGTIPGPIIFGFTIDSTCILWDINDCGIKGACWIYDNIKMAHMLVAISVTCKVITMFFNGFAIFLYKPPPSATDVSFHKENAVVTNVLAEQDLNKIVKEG
# EXPERIMENT: inhibition of OATP4C1-mediated L-homoarginine ([…]) net uptake in HEK cells
MEASUREMENT_LABEL: pIC50
# pIC50 = -log10(concentration in molar units)

Data request: Send back OATP4C1 (Homo sapiens, UniProt Q6ZQN7) pIC50 of CN=C(NC)NCCC[C@H](N)C(=O)O [SDMA] only.
Data returned: 4.27

These measurements were taken from paper PMC6415861.
